Value source: PubChem BioAssay AID1963861

System: 885724-159-R-J1-PDC KRAS PDC multicell spheroid viability
Experiment: Anticancer human tumor 885724-159-R-J1-PDC patient-derived pancreatic adenocarcinoma cell line growth inhibition [KRAS2]
Details: curve of first compound; second compound 10 µM
// reported IC50 per item

Solved entries:
>>> endpointvalue("Cn1ncnc1[C@H]1c2n[nH]c(=O)c3cc(F)cc(c23)N[C@@H]1c1ccc(F)cc1 + CC1OCC2(CCN(c3cnc(Sc4ccnc(N)c4Cl)c(N)n3)CC2)C1N")
"> 0.1 µM"
>>> endpointvalue("O=C(c1cc(Cc2n[nH]c(=O)c3ccccc23)ccc1F)N1CCN(C(=O)C2CC2)CC1 + COc1cc2nc(C)nc(NC(C)c3cc(N)cc(C(F)(F)F)c3)c2cc1OC1CCOC1")
"> 10 µM"

Look up IC50 for this compound: CC(=O)OC12COC1CC(O)C1(C)C(=O)C(O)C3=C(C)C(OC(=O)C(O)C(NC(=O)OC(C)(C)C)c4ccccc4)CC(O)(C(OC(=O)c4ccccc4)C21)C3(C)C (stereo not drawn) + C=CC(=O)N1CCN(c2nc(=O)n(-c3c(C)ccnc3C(C)C)c3nc(-c4c(O)cccc4F)c(F)cc23)C(C)C1
> 3.16 µM

###

// reported IC50 per item
System: 885724-159-R-J1-PDC KRAS PDC multicell spheroid viability
Assay: Anticancer human tumor 885724-159-R-J1-PDC cell line growth inhibition [KRAS2];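 note: spheroids exposed to agents for 7 days before readout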
Conditions: curve of first compound; second compound 1 µM

Solved entries:
>>> endpointvalue("Cn1ncnc1[C@H]1c2n[nH]c(=O)c3cc(F)cc(c23)N[C@@H]1c1ccc(F)cc1 + CC1OCC2(CCN(c3cnc(Sc4ccnc(N)c4Cl)c(N)n3)CC2)C1N")
"> 0.1 µM"
>>> endpointvalue("CC(=O)OC12COC1CC(O)C1(C)C(=O)C(O)C3=C(C)C(OC(=O)C(O)C(NC(=O)OC(C)(C)C)c4ccccc4)CC(O)(C(OC(=O)c4ccccc4)C21)C3(C)C (configuration not stated) + C=CC(=O)N1CCN(c2nc(=O)n(-c3c(C)ccnc3C(C)C)c3nc(-c4c(O)cccc4F)c(F)cc23)C(C)C1")
"> 3.16 µM"
>>> endpointvalue("COc1cc(Nc2ncc3c(n2)-c2ccc(Cl)cc2C(c2c(F)cccc2OC)=NC3)ccc1C(=O)O + CC1OCC2(CCN(c3cnc(Sc4ccnc(N)c4Cl)c(N)n3)CC2)C1N")
"> 10 µM"

Here is another compound to look at.
Look up IC50 for this compound: CC(C)NCC(C(=O)N1CCN(c2ncnc3c2C(C)CC3O)CC1)c1ccc(Cl)cc1 (configuration not stated) + C=CC(=O)N1CCN(c2nc(OCC3CCCN3C)nc3c2CCN(c2cccc4cccc(C)c24)C3)CC1CC#N
> 10 µM

###

Test system: 885724-159-R-J1-PDC KRAS PDC multicell spheroid viability
Assay: Anticancer human tumor 885724-159-R-J1-PDC cell line growth inhibition [KRAS2];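 note: spheroids exposed to agents for 7 days before readout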
Conditions: second compound 0.316 µM; first compound 0.001 µM; stronger effect = lower value
propertyLabel: viability, T/C (%)
All answers are understood in %, so give the number only.

Solved entries:
>>> endpointvalue("CC(=O)Nc1cccc(-n2c(=O)n(C3CC3)c(=O)c3c(Nc4ccc(I)cc4F)n(C)c(=O)c(C)c32)c1 + C=CC(=O)N1CCN(c2nc(OCC3CCCN3C)nc3c2CCN(c2cccc4cccc(C)c24)C3)CC1CC#N")
45.1
>>> endpointvalue("CC(=O)Nc1cccc(-n2c(=O)n(C3CC3)c(=O)c3c(Nc4ccc(I)cc4F)n(C)c(=O)c(C)c32)c1 + CC1OCC2(CCN(c3cnc(Sc4ccnc(N)c4Cl)c(N)n3)CC2)C1N")
41.3
>>> endpointvalue("Cn1ncnc1[C@H]1c2n[nH]c(=O)c3cc(F)cc(c23)N[C@@H]1c1ccc(F)cc1 + COc1cc2nc(C)nc(NC(C)c3cc(N)cc(C(F)(F)F)c3)c2cc1OC1CCOC1")
102
>>> endpointvalue("CN(C)C/C=C/C(=O)Nc1cc2c(Nc3ccc(F)c(Cl)c3)ncnc2cc1O[C@H]1CCOC1 + C=CC(=O)N1CCN(c2nc(OCC3CCCN3C)nc3c2CCN(c2cccc4cccc(C)c24)C3)CC1CC#N")
106
>>> endpointvalue("CN(C)C/C=C/C(=O)Nc1cc2c(Nc3ccc(F)c(Cl)c3)ncnc2cc1O[C@H]1CCOC1 + CNCc1ccccc1-c1csc(C(C)Nc2nc(C)nc3cc(OC)c(OC)cc23)c1")
107
>>> endpointvalue("Cn1ncnc1[C@H]1c2n[nH]c(=O)c3cc(F)cc(c23)N[C@@H]1c1ccc(F)cc1 + C=CC(=O)N1CCN(c2nc(OCC3CCCN3C)nc3c2CCN(c2cccc4cccc(C)c24)C3)CC1CC#N")
111
>>> endpointvalue("CC(C)n1nc(-c2ccc3oc(N)nc3c2)c2c(N)ncnc21 + C=CC(=O)N1CCN(c2nc(=O)n(-c3c(C)ccnc3C(C)C)c3nc(-c4c(O)cccc4F)c(F)cc23)C(C)C1")
82.9

Find viability, T/C (885724-159-R-J1-PDC KRAS PDC multicell spheroid viability) for the entry CC(C)n1nc(-c2ccc3oc(N)nc3c2)c2c(N)ncnc21 + CC1OCC2(CCN(c3cnc(Sc4ccnc(N)c4Cl)c(N)n3)CC2)C1N
75.7
